test system: NCI-H1993; test: relative viability (nuclei count vs DMSO), 5 days (fraction); higher = more cells survive; conditions: first compound 0.2 µM
outcome measure: relative viability

{"compound": "Cc1csc(=NC2CCCCC2)n1/N=C/c1ccc(O)c(O)c1O [MIM1] + O=C(c1cc(Cc2n[nH]c(=O)c3ccccc23)ccc1F)N1CCN(C(=O)C2CC2)CC1 [Olaparib] (partner 8 µM)", "assay target": "NCI-H1993", "outcome measure": "relative viability", "measured number": 1}
{"compound": "CCNC(=O)c1noc(-c2cc(C(C)C)c(O)cc2O)c1-c1ccc(CN2CCOCC2)cc1 [Luminespib] + Cc1nc(NC(=O)N2CCC[C@H]2C(N)=O)sc1-c1ccnc(C(C)(C)C(F)(F)F)c1 [Alpelisib] (partner 2 µM)", "assay target": "NCI-H1993", "outcome measure": "relative viability", "measured number": 0.548}
{"compound": "CN1CCN(CCOc2cc(OC3CCOCC3)c3c(Nc4c(Cl)ccc5c4OCO5)ncnc3c2)CC1 [Saracatinib] + CC(=O)Nc1cccc(-n2c(=O)n(C3CC3)c(=O)c3c(Nc4ccc(I)cc4F)n(C)c(=O)c(C)c32)c1 [Trametinib] (partner 0.02 µM)", "assay target": "NCI-H1993", "outcome measure": "relative viability", "measured number": 0.518}
{"compound": "CCNC(=O)c1noc(-c2cc(C(C)C)c(O)cc2O)c1-c1ccc(CN2CCOCC2)cc1 [Luminespib] + CC(=O)Nc1cccc(-n2c(=O)n(C3CC3)c(=O)c3c(Nc4ccc(I)cc4F)n(C)c(=O)c(C)c32)c1 [Trametinib] (partner 0.02 µM)", "assay target": "NCI-H1993", "outcome measure": "relative viability", "measured number": 0.474}
